Tested on: MCF7
protocol_notes: Cytotoxicity activity against human MCF7 cells expressing p53 mutant by MTT assay
Type: functional, cell-based
List of IC50 values.
measure_name: IC50 (nM)

- compound: "CN[C@H](C(=O)N[C@H](C(=O)N(C)[C@H](/C=C(\\C)C(=O)OC)C(C)C)C(C)(C)C)C(C)(C)c1ccccc1"
  measure_name: "IC50"
  display_unit: "nM"
  inequality_symbol: "="
  value_measured: 3
- compound: "CN[C@H](C(=O)N[C@H](C(=O)N(C)[C@@H](C)/C=C(\\C)C(=O)O)C(C)(C)C)C(C)(C)c1cn(C)c2ccccc12"
  measure_name: "IC50"
  display_unit: "nM"
  inequality_symbol: "="
  value_measured: 4
- compound: "CN[C@@H](Cc1ccccc1)C(=O)N[C@H](C(=O)N(C)[C@H](/C=C(\\C)C(=O)O)C(C)C)C(C)(C)C"
  measure_name: "IC50"
  display_unit: "nM"
  inequality_symbol: "="
  value_measured: 4000
- compound: "CN[C@H](C(=O)N[C@H](C(=O)N(C)[C@H](/C=C(\\C)C(=O)O)C(C)C)C(C)(C)C)C(C)(C)C"
  measure_name: "IC50"
  display_unit: "nM"
  inequality_symbol: "="
  value_measured: 6
- compound: "CN[C@@H](Cc1cn(C)c2ccccc12)C(=O)N[C@H](C(=O)N(C)C/C=C(\\C)C(=O)O)C(C)(C)C"
  measure_name: "IC50"
  display_unit: "nM"
  inequality_symbol: ">"
  value_measured: 10000
- compound: "C/C(=C\\[C@H](C(C)C)N(C)C(=O)[C@@H](NC(=O)[C@@H](N)C(C)(C)c1cn(C)c2ccccc12)C(C)(C)C)C(=O)O"
  measure_name: "IC50"
  display_unit: "nM"
  inequality_symbol: "="
  value_measured: 50
- compound: "CN[C@H](C(=O)N[C@H](C(=O)N(C)[C@H](/C=C(\\C)C(=O)OC)C(C)C)C(C)(C)C)C(C)(C)c1cn(C)c2ccccc12"
  measure_name: "IC50"
  display_unit: "nM"
  inequality_symbol: "="
  value_measured: 0.5
- compound: "C/C(=C\\[C@H](C(C)C)N(C)C(=O)[C@@H](NC(=O)[C@H](C(C)(C)c1cn(C)c2ccccc12)[N+](C)(C)C)C(C)(C)C)C(=O)O"
  measure_name: "IC50"
  display_unit: "nM"
  inequality_symbol: ">"
  value_measured: 1000
- compound: "CC(=O)N(C)[C@H](C(=O)N[C@H](C(=O)N(C)[C@H](/C=C(\\C)C(=O)O)C(C)C)C(C)(C)C)C(C)(C)c1cn(C)c2ccccc12"
  measure_name: "IC50"
  display_unit: "nM"
  inequality_symbol: "="
  value_measured: 300
- compound: "CN[C@H](C(=O)N[C@H](C(=O)N(C)[C@H](/C=C(\\C)C(=O)O)C(C)C)C(C)(C)C)C(C)(C)c1c[nH]c2ccccc12"
  measure_name: "IC50"
  display_unit: "nM"
  inequality_symbol: "="
  value_measured: 2
- compound: "CN[C@@H](C(=O)N[C@H](C(=O)N(C)[C@H](/C=C(\\C)C(=O)O)C(C)C)C(C)(C)C)C(C)(C)c1ccccc1"
  measure_name: "IC50"
  display_unit: "nM"
  inequality_symbol: "="
  value_measured: 25
- compound: "C/C(=C\\[C@H](C(C)C)N(C)C(=O)[C@@H](NC(=O)[C@@H](N)Cc1c[nH]c2ccccc12)C(C)(C)C)C(=O)O"
  measure_name: "IC50"
  display_unit: "nM"
  inequality_symbol: "="
  value_measured: 40
- compound: "CC[C@H](NC(=O)[C@@H](NC)C(C)(C)c1cn(C)c2ccccc12)C(=O)N(C)[C@H](/C=C(\\C)C(=O)O)C(C)C"
  measure_name: "IC50"
  display_unit: "nM"
  inequality_symbol: "="
  value_measured: 0.8
- compound: "CN[C@H](C(=O)N[C@H](C(=O)N(C)[C@H](C)/C=C(\\C)C(=O)O)C(C)(C)C)C(C)(C)c1cn(C)c2ccccc12"
  measure_name: "IC50"
  display_unit: "nM"
  inequality_symbol: "="
  value_measured: 40
- compound: "CN[C@H](C(=O)N[C@H](C(=O)N(C)[C@@H](/C=C(\\C)C(=O)O)C(C)C)C(C)(C)C)C(C)(C)c1cn(C)c2ccccc12"
  measure_name: "IC50"
  display_unit: "nM"
  inequality_symbol: "="
  value_measured: 30
- compound: "CN[C@H](C(=O)N[C@H](C(=O)N[C@H](/C=C(\\C)C(=O)O)C(C)C)C(C)(C)C)C(C)(C)c1cn(C)c2ccccc12"
  measure_name: "IC50"
  display_unit: "nM"
  inequality_symbol: "="
  value_measured: 0.25
- compound: "CN[C@H](C(=O)N[C@H](C(=O)N(C)[C@H](/C=C(\\C)C(=O)N[C@@H](CCCNC(=N)N)C(=O)O)C(C)C)C(C)(C)C)C(C)(C)c1cn(C)c2ccccc12"
  measure_name: "IC50"
  display_unit: "nM"
  inequality_symbol: "="
  value_measured: 1000
- compound: "CN[C@H](C(=O)N[C@H](C(=O)N(C)[C@H](/C=C(\\C)C(=O)O)C(C)C)C(C)(C)C)C(C)(C)c1cn(C)c2ccccc12"
  measure_name: "IC50"
  display_unit: "nM"
  inequality_symbol: "="
  value_measured: 0.3
- compound: "CN[C@H](C(=O)N[C@H](C(=O)N[C@H](/C=C(\\C)C(=O)O)C(C)C)C(C)(C)C)C(C)(C)c1ccccc1"
  measure_name: "IC50"
  display_unit: "nM"
  inequality_symbol: "="
  value_measured: 15
- compound: "CN[C@H](C(=O)N[C@H](C(=O)N(C)[C@H](/C=C(\\C)C(=O)O)C(C)C)C(C)(C)C)C(C)(C)c1ccccc1"
  measure_name: "IC50"
  display_unit: "nM"
  inequality_symbol: "="
  value_measured: 0.08
- compound: "CN[C@H](C(=O)N[C@H](C(=O)N(C)[C@H](/C=C(\\C)C(=O)O)C(C)C)C(C)(C)C)C(C)C"
  measure_name: "IC50"
  display_unit: "nM"
  inequality_symbol: "="
  value_measured: 150
- compound: "C/C(=C\\[C@H](C(C)C)N(C)C(=O)[C@@H](NC(=O)C(C)(C)C)C(C)(C)C)C(=O)O"
  measure_name: "IC50"
  display_unit: "nM"
  inequality_symbol: ">"
  value_measured: 10000
- compound: "CN[C@H](C(=O)N[C@H](C(=O)N(C)C/C=C(\\C)C(=O)O)C(C)(C)C)C(C)(C)c1cn(C)c2ccccc12"
  measure_name: "IC50"
  display_unit: "nM"
  inequality_symbol: ">"
  value_measured: 10000
- compound: "CN[C@H](C(=O)N[C@H](C(=O)N(C)[C@H](/C=C(\\C)C(=O)O)C(C)C)C(C)C)C(C)(C)c1cn(C)c2ccccc12"
  measure_name: "IC50"
  display_unit: "nM"
  inequality_symbol: "="
  value_measured: 0.8
- compound: "CN[C@@H](Cc1cn(C)c2ccccc12)C(=O)N[C@H](C(=O)N(C)C(C)/C=C(\\C)C(=O)O)C(C)(C)C (stereo partly specified)"
  measure_name: "IC50"
  display_unit: "nM"
  inequality_symbol: "="
  value_measured: 2500
- compound: "CN[C@H](C(=O)N[C@H](C(=O)N(C)CCCC(=O)O)C(C)(C)C)C(C)(C)c1cn(C)c2ccccc12"
  measure_name: "IC50"
  display_unit: "nM"
  inequality_symbol: ">"
  value_measured: 1000

====

System: MCF7
protocol_notes: Antimitotic activity against human MCF7 cells expressing p53 mutant
pIC50: −log10 of the molar value.
Decision: pIC50 compared against 8; not below it gives Yes, below it gives No.

- compound: "CN[C@H](C(=O)N[C@H](C(=O)N(C)[C@H](C)/C=C(\\C)C(=O)O)C(C)(C)C)C(C)(C)c1cn(C)c2ccccc12"
  discrete_label: "No"
- compound: "CN[C@H](C(=O)N[C@H](C(=O)N(C)[C@H](/C=C(\\C)C(=O)O)C(C)C)C(C)(C)C)C(C)C"
  discrete_label: "No"
- compound: "CN[C@H](C(=O)N[C@H](C(=O)N(C)C/C=C(\\C)C(=O)O)C(C)(C)C)C(C)(C)c1cn(C)c2ccccc12"
  discrete_label: "No"
- compound: "CN[C@H](C(=O)N[C@H](C(=O)N(C)[C@H](CC(C)C(=O)O)C(C)C)C(C)(C)C)C(C)(C)c1cn(C)c2ccccc12 (some centres undefined)"
  discrete_label: "Yes"
- compound: "CN[C@H](C(=O)N[C@H](C(=O)N(C)[C@H](/C=C(\\C)C(=O)O)C(C)C)C(C)(C)C)C(C)(C)c1cn(C)c2ccccc12 [HEMIASTERLIN]"
  discrete_label: "Yes"
- compound: "C/C(=C\\[C@H](C(C)C)N(C)C(=O)[C@@H](NC(=O)[C@@H](N)Cc1c[nH]c2ccccc12)C(C)(C)C)C(=O)O"
  discrete_label: "No"
- compound: "CC(=O)N(C)[C@H](C(=O)N[C@H](C(=O)N(C)[C@H](/C=C(\\C)C(=O)O)C(C)C)C(C)(C)C)C(C)(C)c1cn(C)c2ccccc12"
  discrete_label: "No"
- compound: "C/C(=C\\[C@H](C(C)C)N(C)C(=O)[C@@H](NC(=O)[C@H](C(C)(C)c1cn(C)c2ccccc12)[N+](C)(C)C)C(C)(C)C)C(=O)O"
  discrete_label: "No"
- compound: "CN[C@H](C(=O)N[C@H](C(=O)N(C)[C@H](/C=C(\\C)C(=O)O)C(C)C)C(C)C)C(C)(C)c1c[nH]c2ccccc12 [HEMIASTERLINS B]"
  discrete_label: "No"
- compound: "CN[C@H](C(=O)N[C@H](C(=O)N[C@H](/C=C(\\C)C(=O)O)C(C)C)C(C)(C)C)C(C)(C)c1ccccc1"
  discrete_label: "No"
- compound: "CN[C@@H](Cc1cn(C)c2ccccc12)C(=O)N[C@H](C(=O)N(C)C(C)/C=C(\\C)C(=O)O)C(C)(C)C (some centres undefined)"
  discrete_label: "No"
